// data source = patent US6191150A

target: TNFα Converting Enzyme (Homo sapiens, UniProt P78536); construct: Membrane preparation from MonoMac 6 cells; endogenous in cells; host or cells: MonoMac 6 cells, subfractionated membrane preparation; assay: TNFα converting enzyme inhibition, MonoMac 6 membrane preparation, radiolabeled substrate SPA; format: biochemical
Sequence (P78536 215-824): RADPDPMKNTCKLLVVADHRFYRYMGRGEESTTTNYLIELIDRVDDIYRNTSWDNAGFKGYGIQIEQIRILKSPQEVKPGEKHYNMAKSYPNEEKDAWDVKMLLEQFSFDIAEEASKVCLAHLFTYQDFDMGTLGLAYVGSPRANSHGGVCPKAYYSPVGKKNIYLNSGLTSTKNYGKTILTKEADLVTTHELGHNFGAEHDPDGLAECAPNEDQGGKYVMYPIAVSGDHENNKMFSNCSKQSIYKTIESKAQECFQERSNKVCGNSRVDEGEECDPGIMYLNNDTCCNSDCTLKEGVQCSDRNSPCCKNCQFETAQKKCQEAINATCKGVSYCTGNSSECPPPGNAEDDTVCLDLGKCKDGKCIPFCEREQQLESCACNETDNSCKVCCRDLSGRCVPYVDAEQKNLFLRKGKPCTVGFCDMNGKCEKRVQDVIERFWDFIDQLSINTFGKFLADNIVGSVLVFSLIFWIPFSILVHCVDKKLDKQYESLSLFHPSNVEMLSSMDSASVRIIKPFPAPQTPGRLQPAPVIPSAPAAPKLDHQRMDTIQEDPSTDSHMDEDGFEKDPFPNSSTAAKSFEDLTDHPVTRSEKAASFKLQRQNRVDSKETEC
recorded_metric: Ki

Item under review: NC(=N[N+](=O)[O-])NCCC[C@H](NC(=O)[C@H](CC1CCCCC1)[C@H](C1CC1)N(O)C=O)C(=O)Nc1nccs1 . Reported Ki?
< 50 nM
